Test: In-vivo pharmacokinetic study in rats: passive cannabis smoke inhalation
Conditions: male, Wistar, rat, plasma, ip, 3 mg/kg
MEASUREMENT_LABEL: AUC(0-inf) (ng·h/mL)

> print(dat)
                                   molecule  measurement.label  readout.number
1  Cc1c(C(=O)NN2CCCCC2)nn(-c2ccc(Cl)cc2Cl)c1-c1ccc(Cl)cc1 [Rimonabant, rimonabant]         AUC(0-inf)             458

----------
Assay: In-vivo pharmacokinetic study in rats: passive cannabis smoke inhalation
Details: male, Wistar, rat, plasma, inhaled or intranasal, 0.05 mg/kg
MEASUREMENT_LABEL: half-life (h)

> print(dat)
                                   compound  measurement.label  readout.number
1  CCCCCc1cc(O)c2c(c1)OC(C)(C)[C@@H]1CCC(C)=C[C@@H]21 [THC, delta-9-tetrahydrocannabinol]          half-life             3.7

----------
Assay: In-vivo pharmacokinetic study in rats: passive cannabis smoke inhalation
Details: male, Wistar, rat, plasma, inhaled or intranasal, 0.05 mg/kg
MEASUREMENT_LABEL: AUC(0-t) (ng·h/mL)

> print(dat)
                                   compound  measurement.label  readout.number
1  CCCCCc1cc(O)c2c(c1)OC(C)(C)[C@@H]1CCC(C)=C[C@@H]21 [THC, delta-9-tetrahydrocannabinol]           AUC(0-t)            12.2

----------
Assay: In-vivo pharmacokinetic study in rats: passive cannabis smoke inhalation
Conditions: male, Wistar, rat, plasma, ip, 3 mg/kg
MEASUREMENT_LABEL: AUC(0-t) (ng·h/mL)

> print(dat)
                                item.smiles  units.label  readout.number
1  Cc1c(C(=O)NN2CCCCC2)nn(-c2ccc(Cl)cc2Cl)c1-c1ccc(Cl)cc1      ng·h/mL             308

----------
Assay: In-vivo pharmacokinetic study in rats: passive cannabis smoke inhalation
Details: male, Wistar, rat, plasma, ip, 3 mg/kg
MEASUREMENT_LABEL: Tmax (min)

> print(dat)
                                   molecule  measurement.label  units.label  readout.number
1  Cc1c(C(=O)NN2CCCCC2)nn(-c2ccc(Cl)cc2Cl)c1-c1ccc(Cl)cc1 [Rimonabant, rimonabant]               Tmax          min              12

----------
Assay: In-vivo pharmacokinetic study in rats: passive cannabis smoke inhalation
Details: male, Wistar, rat, plasma, inhaled, 0.05 mg/kg
MEASUREMENT_LABEL: AUC(0-inf) (ng·h/mL)

> print(dat)
                                   compound  units.label  readout.number
1  CCCCCc1cc(O)c2c(c1)OC(C)(C)[C@@H]1CCC(C)=C[C@@H]21 [THC, delta-9-tetrahydrocannabinol]      ng·h/mL            13.9
